Would you kindly list fold change (FC) for each of these compounds?
# Tested System: Tubulin (Homo sapiens) (UniProt P68371+Q9H4B7+P0DPH7+P68366+Q13509+Q71U36+P04350+Q3ZCM7+P07437+P68363+Q9BQE3+Q6PEY2+Q13885+Q9BVA1+Q9BUF5)
# Test Summary: Stabilization of microtubules in human QBI293 cells assessed as fold change in acetylated tubulin levels at 1 uM after 4 hrs by ELISA relative to DMSO
# Assay type: cell-based
One number for each entry.

Illustrative cases are given below, each with its answer.
Compound | Metric Name | Reading
C[C@H](Nc1c(-c2ccccc2)c(Cl)nc2ncnn12)C(F)(F)F | fold change (FC) | 1.11
C[C@H](Nc1c(-c2c(F)cc(C(F)(F)F)cc2F)c(Cl)nc2ncnn12)C(F)(F)F | fold change (FC) | 1.09
C[C@H](Nc1c(-c2c(F)cc(N)cc2F)c(Cl)nc2ncnn12)C(F)(F)F | fold change (FC) | 0.94
C[C@H](Nc1c(-c2ccc(F)c(F)c2F)c(Cl)nc2ncnn12)C(F)(F)F | fold change (FC) | 1.5
Fc1cc(F)c(-c2c(Cl)nc3ncnn3c2NC2CCC2)c(F)c1 | fold change (FC) | 0.97

Next compound, fold change (FC) to be filled in.
GET /values?readout=fold change (FC)&item= C[C@H](Nc1c(-c2cc(F)ccc2F)c(Cl)nc2ncnn12)C(F)(F)F
1.4
